test: Reinjection stability in final extract; assay type: physicochemical; conditions: reinjected, 4°C, autosampler, 25.95 h, nominal 150 ng/mL
reported-metric: Mean measured concentration (ng/mL)

CC(=O)c1c(C)c2cnc(Nc3ccc(N4CCNCC4)cn3)nc2n(C2CCCC2)c1=O
160
Cc1nc2c(F)cc(-c3nc(Nc4ccc(CN5CCNCC5)cn4)ncc3F)cc2n1C(C)C
155
CCN1CCN(Cc2ccc(Nc3ncc(F)c(-c4cc(F)c5nc(C)n(C(C)C)c5c4)n3)nc2)CC1
155
CN(C)C(=O)c1cc2cnc(Nc3ccc(N4CCNCC4)cn3)nc2n1C1CCCC1
161

====

experiment: Freeze-thaw stability of unprocessed plasma samples; assay type: in vitro ADME; conditions: human plasma, 3 freeze (-80°C)-thaw cycles, nominal 15 ng/mL
reported-metric: Mean measured concentration (ng/mL)

CN(C)C(=O)c1cc2cnc(Nc3ccc(N4CCNCC4)cn3)nc2n1C1CCCC1
15.0
CCN1CCN(Cc2ccc(Nc3ncc(F)c(-c4cc(F)c5nc(C)n(C(C)C)c5c4)n3)nc2)CC1
15.1
CC(=O)c1c(C)c2cnc(Nc3ccc(N4CCNCC4)cn3)nc2n(C2CCCC2)c1=O
15.0
Cc1nc2c(F)cc(-c3nc(Nc4ccc(CN5CCNCC5)cn4)ncc3F)cc2n1C(C)C
15.0
